Source of measurements: PubChem BioAssay

Biological target: Homeobox protein Hox-A13 (Mus musculus)
Test: inhibitors of HoxA13-DNA binding, primary screen, biochemical, fluorescence polarization, labeled oligonucleotide (AID 1185)
Conditions: 15 min, higher = more signal, called active from +8 up or from −8 down
reported property: z-score
Numbers only.

Here's what some known entries look like.
compound	z-score
O=C1O[C@H](c2ccccc2)[C@H](c2ccccc2)N2[C@H]1[C@@H](C(=O)O)[C@]1(C(=O)Nc3ccc(C#CCCO)cc31)[C@H]2c1ccc(O)cc1	-5.42
C=CCOC(=O)[C@@H]1[C@H]2C(=O)O[C@H](c3ccccc3)[C@H](c3ccccc3)N2[C@H](c2ccc(OCCOC(=O)[C@@H]3C[C@@H]4C(=O)N[C@@H](CCCCN(C)C)C(=O)N4[C@@H]3c3ccc(O)cc3)cc2)[C@@]12C(=O)Nc1ccc(I)cc12	5.96
O=C(c1ccccc1)N1Cc2ccccc2[C@@H]2OC(c3ccc(OCCCO)cc3)=N[C@]2(Cc2ccccc2)C1=O	1.01
COc1ccc(C(O)C2C=CC3C(=O)N(c4ccccc4)C(=O)C3N2Nc2ccccc2F)cc1OCc1ccccc1 (stereo not given)	-0.0495

What z-score value was documented for this compound, `CC(C)C[C@@H]1NC(=O)[C@@H]2C[C@H](C(=O)NCCCCCN)[C@H](c3cccc(OCCO)c3)N2C1=O` ?
-3.34

----------
Molecular target: Dickkopf-related protein 1 (Homo sapiens) (UniProt O94907)
Sequence (O94907 whole entry, looked up): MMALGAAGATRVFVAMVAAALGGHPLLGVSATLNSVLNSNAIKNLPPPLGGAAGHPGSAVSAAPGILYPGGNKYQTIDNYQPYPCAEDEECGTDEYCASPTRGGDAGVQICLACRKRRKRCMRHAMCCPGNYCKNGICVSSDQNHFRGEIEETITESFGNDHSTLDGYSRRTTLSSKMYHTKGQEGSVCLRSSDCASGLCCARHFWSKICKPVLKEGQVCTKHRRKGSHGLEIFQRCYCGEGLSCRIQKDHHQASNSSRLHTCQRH
Experiment: DKK1 binders on small-molecule microarrays, primary screen, biochemical, small-molecule microarray, 635 nm fluorescence scan (AID 1106);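 also: score merges emission near 667 nm with signal to noise over three replicate slides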
Details: DKK1 binding, higher = more signal
Give composite z-score for every item shown.
One number for each entry.

compound	tested on	composite z-score
CCCN1C(=O)[C@]2(CCS(=O)(=O)c3ccccc3)N=C(c3ccc(OCCCO)cc3)O[C@@H]2c2ccccc21	Dickkopf-related protein 1 (Homo sapiens) (UniProt O94907)	0.125
CN(C)C(=O)[C@]1(Cc2ccccc2N=[N+]=[N-])N=C(c2ccc(OCCCO)cc2)O[C@@H]1c1ccccc1	Dickkopf-related protein 1 (Homo sapiens) (UniProt O94907)	-0.121
COC(=O)[C@@]1(Cc2ccccc2)[C@H]2c3cc(C(=O)N4CCCC4)n(Cc4nc5ccccc5[nH]4)c3C[C@H]2CN1C(=O)c1ccccc1	Dickkopf-related protein 1 (Homo sapiens) (UniProt O94907)	-0.137
C=CC[C@]12N=C(c3ccc(OCCCO)cc3)O[C@H]1c1ccccc1N(Cc1ccccc1)C2=O	Dickkopf-related protein 1 (Homo sapiens) (UniProt O94907)	0.378
COc1ccc(C(O)C2C=CC3C(=O)N(c4ccccc4)C(=O)C3N2Nc2ccccc2F)cc1OCc1ccccc1 (configuration not stated)	Dickkopf-related protein 1 (Homo sapiens) (UniProt O94907)	-0.633

Hi, could you look up composite z-score for each item in my list?
1. O=C1OCCC/C=C\[C@H]2OC34C=CCN(c5ccc6ccccc6c5)C(=O)[C@H]3N(CCCCCCO)C(=O)[C@@H]4C12 (some centres not stated)
2. CC(C)N1C(=O)c2ccccc2[C@](C)(C(=O)NCc2ccccc2)[C@@H]1c1ccc(CO)cc1

1: -1.71; 2: -1.16

----------
Assay: HepG2 cell viability effects, profiling panel, calcein-AM fluorescence, 48 h, basal (AID 1164); also: test concentration not given here
Settings: higher = more signal
reported property: z-score
Answers are plain numbers.

Examples from the recorded data:
molecule	value observed
COC(=O)C=C(CC(O)c1cccc(Cl)c1)OC (stereo not given)	1.01
COc1cc(OC)c(C(O)C2C=CC3C(=O)NC(=O)C3N2Nc2ccc(Cl)cc2Cl)cc1Br (stereo not given)	-2.49
NCCCCCNC(=O)[C@@H]1C[C@@H]2C(=O)NCC(=O)N2[C@@H]1c1ccc(O)cc1	0.678
COC(=O)C(CC#Cc1ccc2c(c1)[C@]1(C(=O)N2)[C@H](c2ccc(O)cc2)N2[C@H](c3ccccc3)[C@H](c3ccccc3)OC(=O)[C@H]2[C@@H]1C(=O)Nc1nc2ccccc2s1)C(=O)OC	1.47

Quick one: z-score of `CN(C)C(=O)[C@]1(Cc2ccccc2CN=[N+]=[N-])N=C(c2ccc(OCCCO)cc2)O[C@@H]1c1ccccc1CN=[N+]=[N-]` ?
0.309
